# Test system: HCV replicons in AVA5 cell cultures
# Experiment: Secondary in vitro anti-HCV dose-response assay: intracellular HCV RNA
# Details: AVA5, HCV RNA; linear regression
Result type: pEC50
FYI, pEC50 means -log10 of a concentration in mol per litre.

INSERT INTO measurements (chemical_smiles, reported_measurement) VALUES
  ('O=c1cc(Sc2c(Cl)cccc2Cl)c2cc(F)ccc2o1', 6.31);

Which measured pEC50 value corresponds to O=c1cc(Sc2ccc(F)cc2F)c2cc(F)ccc2o1 ? 5.85

// same read-out, input: Cc1cc(C)cc(Sc2c(Sc3cccc(Cl)c3)c3ccccc3oc2=O)c1 5.92

* * *

# ATP Cell Viability annotations
# Test system: AVA5 cell line
# Experiment: ATP Cell Viability
# Details: 1 μM
The reply should be a number, written without any unit.

INSERT INTO assay_data (compound, result_type, reported_measurement) VALUES
  ('O=c1cc(Sc2cc(Cl)ccc2Cl)c2cc(F)ccc2o1 [compound 901]', 'ATP Cell Viability', 105.62),
  ('O=c1cc(Sc2c(Cl)cccc2Cl)c2cc(F)ccc2o1 [compound 902]', 'ATP Cell Viability', 97.96),
  ('O=c1cc(Sc2ccc(F)cc2Cl)c2cc(F)ccc2o1 [compound 899]', 'ATP Cell Viability', 102.77);

ATP Cell Viability lookup needed for O=c1cc(Sc2ccc(F)cc2F)c2cc(F)ccc2o1 [compound 910] , thanks. 115.34

* * *

# Test system: AVA5 cell line
# Experiment: MTS Cell Viability
# Details: 1 μM
Recorded MTS Cell Viability by entry
Form rule: numeric answer, no unit written next to it.

Guide cases for MTS Cell Viability, answers given:
INSERT INTO assay_data (chemical_smiles, assayed_target, reported_measurement) VALUES
  ('O=c1cc(Sc2ccccc2F)c2cc(F)ccc2o1', 'AVA5 cell line', 116.41),
  ('O=c1cc(Sc2ccccc2Cl)c2cc(F)ccc2o1', 'AVA5 cell line', 104.53),
  ('O=c1cc(Sc2ccc(F)cc2F)c2cc(F)ccc2o1', 'AVA5 cell line', 105.74),
  ('COc1ccc2oc(=O)cc(Sc3ccc(F)cc3F)c2c1', 'AVA5 cell line', 112.38);

State the recorded MTS Cell Viability for this entry: O=c1cc(Sc2c(Cl)cccc2Cl)c2cc(F)ccc2o1 116.05

What about this molecule? O=c1cc(Sc2ccc(F)cc2Cl)c2cc(F)ccc2o1 106.10

Field entry: O=c1cc(Sc2cc(Cl)ccc2Cl)c2cc(F)ccc2o1 107.32

* * *

Below, each entry is listed with its recorded ATP Cell Viability.
# System: AVA5 cell line
# Experiment: ATP Cell Viability
# Details: 5 μM
Reply briefly: the number, and no unit.

Sample records with ATP Cell Viability:
INSERT INTO measurements (chemical_smiles, assayed_target, result_type, reported_measurement) VALUES
  ('O=c1cc(Sc2ccc(F)cc2Cl)c2cc(F)ccc2o1', 'AVA5 cell line', 'ATP Cell Viability', 112.43),
  ('O=c1cc(Sc2cc(Cl)ccc2Cl)c2cc(F)ccc2o1', 'AVA5 cell line', 'ATP Cell Viability', 106.63),
  ('O=c1cc(Sc2ccccc2Cl)c2cc(F)ccc2o1', 'AVA5 cell line', 'ATP Cell Viability', 109.42),
  ('O=c1cc(Sc2ccccc2F)c2cc(F)ccc2o1', 'AVA5 cell line', 'ATP Cell Viability', 100.32);

What value of ATP Cell Viability has been reported for the following compound? COc1ccc2oc(=O)cc(Sc3ccccc3F)c2c1 91.28

Moving on to the next compound: COc1ccc2oc(=O)cc(Sc3ccc(F)cc3F)c2c1 97.11

Also check O=c1cc(Sc2c(Cl)cccc2Cl)c2cc(F)ccc2o1 101.74

Try the compound O=c1cc(Sc2ccc(F)cc2F)c2cc(F)ccc2o1 97.48

* * *

MTS Cell Viability values by entry
# Test system: AVA5 cell line
# Experiment: MTS Cell Viability
# Details: 5 μM
Answer with the value's number alone.

Some compounds with recorded MTS Cell Viability:
INSERT INTO results (chemical_smiles, assayed_target, reported_measurement) VALUES
  ('O=c1cc(Sc2ccccc2F)c2cc(F)ccc2o1', 'AVA5 cell line', 108.04),
  ('O=c1cc(Sc2ccccc2Cl)c2cc(F)ccc2o1', 'AVA5 cell line', 83.91),
  ('O=c1cc(Sc2ccc(F)cc2Cl)c2cc(F)ccc2o1', 'AVA5 cell line', 90.22);

Need MTS Cell Viability of O=c1cc(Sc2cc(Cl)ccc2Cl)c2cc(F)ccc2o1 , thanks. 97.37

Moving on to O=c1cc(Sc2c(Cl)cccc2Cl)c2cc(F)ccc2o1 86.70

How about this compound: COc1ccc2oc(=O)cc(Sc3ccc(F)cc3F)c2c1 101.06

Note, next up: O=c1cc(Sc2ccc(F)cc2F)c2cc(F)ccc2o1 92.64

* * *

# Tested on: HCV RNA-replicating cell line AVA5
# Experiment: Normalized Viral Assay
# Format: cell-based, Hepatitis C virus
# Details: 5 μM
Kindly return MET if reported Normalized Viral Assay is no lower than 30; return NOT MET if it is lower.

INSERT INTO assay_data (compound, class) VALUES
  ('COc1ccc2oc(=O)cc(Sc3ccc(F)cc3F)c2c1 [compound 830]', 'MET'),
  ('Cc1cc(C)cc(Sc2c(Sc3cccc(Cl)c3)c3ccccc3oc2=O)c1 [compound 468]', 'MET'),
  ('O=c1cc(Sc2ccc(F)cc2F)c2cc(F)ccc2o1 [compound 910]', 'NOT MET'),
  ('O=c1cc(Sc2c(Cl)cccc2Cl)c2cc(F)ccc2o1 [compound 902]', 'NOT MET');

Hi, just wondering whether Cc1ccc(Sc2c(Sc3ccc(F)cc3Cl)c3ccccc3oc2=O)cc1C [compound 437] shows Normalized Viral Assay of 30 or higher. MET

* * *

ATP Cell Viability values, listed per item
# Test system: AVA5 cell line
# Experiment: ATP Cell Viability
# Details: 1 μM
Lab note: write the figure by itself, no unit.

INSERT INTO measurements (chemical_smiles, result_type, reported_measurement) VALUES
  ('COc1ccc2oc(=O)cc(Sc3ccc(F)cc3F)c2c1', 'ATP Cell Viability', 106.44);

Which ATP Cell Viability value is on record for O=c1cc(Sc2ccccc2Cl)c2cc(F)ccc2o1 ? 113.25

Repeat with O=c1cc(Sc2ccccc2F)c2cc(F)ccc2o1 107.54
